Experiment: qHTS assay to identify small molecule agonists of the retinoic acid receptor (RAR) signaling pathway (AID 1159553)
Reported conditions: C3RL4 RARE luciferase reporter, agonist, 6 h
Results filed as inconclusive are left out. Activity calls are given as the source filed them. Calls come from the whole dose curve; as a rule, active = well fitted activation curve with a large enough effect in the repeat runs; inconclusive = weak or mixed curves, or effect the other way; inactive = no such curve, though single readings can be large or run the other way.
Outcome field: choose from active, inactive

{"Compound": "BrCCBr", "Cat": "inactive"}
{"Compound": "O=c1n(Cl)c(=O)n(Cl)c(=O)n1Cl", "Cat": "inactive"}
{"Compound": "Cc1ccc([N+](=O)[O-])cc1C", "Cat": "inactive"}

Switching to the query record.
Exercise: Check the results log: what was the call for `CCCCN(CC)C(=O)SCCC` ?
Solution: inactive

----------
Experiment: qHTS RealTime-Glo MT Cell Viability Assay in HEK293 cells - 24 hour (AID 1224886); note: nearly all actives have a fitted effect of over 50% in size
Reported conditions: RealTime-Glo luminescence; series mostly up to 76.8 µM
Results filed as inconclusive are left out. Active and inactive are the calls of the source. The call rests on the fitted dose curve; in most records, active means well fitted cell-killing curve with a large enough effect in the repeat runs; inconclusive means weak or mixed curves, or effect the other way; inactive means flat fitted curve, though single readings scatter.
Choose the fitting class; nothing outside 1 (yes) for active, 0 (no) for inactive is accepted.

Please review the entries below; each comes with its answer.
{"Compound": "CC(NC(C)(C)C)C(=O)c1cccc(Cl)c1 (configuration not stated)", "Cat": "0 (no)"}
{"Compound": "OCCN(CCO)CCO", "Cat": "0 (no)"}
{"Compound": "CCC(C)(CC)c1cc(NC(=O)c2c(OC)cccc2OC)on1", "Cat": "0 (no)"}
{"Compound": "CNC(=O)Oc1ccccc1OC(C)C", "Cat": "0 (no)"}

Exercise: // return assay outcome for `[N-]=[N+]=[N-]`
Solution: 0 (no)

Exercise: Can you look up the reported call for `CCCN(CCC)N=O` for me?
Solution: 0 (no)

Exercise: Which outcome was entered for the compound `CCC[CH2][Sn]([Cl])([Cl])[Cl]` in this test?
Solution: 0 (no)

Exercise: Test call, this compound: `CCNc1nc(NC(C)(C)C)nc(SC)n1`
Solution: 1 (yes)

Exercise: // outcome(item) with item = `CCCCCOC(=O)c1ccccc1C(=O)OCCCCC`
Solution: 0 (no)

Exercise: Please indicate how the test categorized `C#CC(C)(C)NC(=O)c1cc(Cl)cc(Cl)c1` .
Solution: 0 (no)

Exercise: Hi, do you know how COP(N)(=O)SC (configuration not stated) came out in this test?
Solution: 0 (no)

Exercise: Tell me the assay call for `Clc1cccc(Cl)c1Cl` please.
Solution: 0 (no)

Exercise: Dear colleague, could you share the recorded outcome for `CC(C)(C)OOC(C)(C)C` when you have a moment?
Solution: 0 (no)

Exercise: Given `CC(C)(Cl)Cl` , state the outcome it received in this test.
Solution: 0 (no)

Exercise: How did this test come out for CC(C#N)CCC#N (configuration not stated) ?
Solution: 0 (no)

Exercise: Call for entry `c1ccc2c(c1)Oc1ccccc1O2` :
Solution: 0 (no)

Exercise: Test call, this compound: `Cc1ccccc1O`
Solution: 0 (no)

Exercise: Tell me the recorded outcome of this test for `CCN(CC)c1ccccc1` .
Solution: 0 (no)

Exercise: GET /call?item= `CN(C)[C@@H]1C(=O)C(C(N)=O)=C(O)[C@@]2(O)C(=O)C3=C(O)c4c(O)cccc4[C@@](C)(O)[C@H]3C[C@@H]12` returns the recorded outcome of this test.
Solution: 0 (no)

----------
System: Nuclear receptor ROR-gamma (Homo sapiens)
Experiment: qHTS assay to identify small molecule antagonists of the retinoid-related orphan receptor gamma (ROR-gamma) signaling pathway (AID 1159521; note: nearly all actives have a fitted effect of over 50% in size)
Reported conditions: Tet-on RORgamma CHO cells, RORE-luciferase, 16 h; series mostly up to 92.4 µM
Inconclusive results are not listed. Active and inactive are the calls of the source. Calls follow the shape of the dose curve; as a rule, active = well fitted inhibition curve with a large enough effect in the repeat runs; inconclusive = weak or mixed curves, or effect the other way; inactive = no such curve, though single readings can be large or run the other way.
Would you mind answering with one of these outcomes? true (1) = active, false (0) = inactive

Solved entries:
{"Compound": "[N-]=[N+]=[N-]", "Cat": "false (0)"}
{"Compound": "c1ccc2c(c1)Oc1ccccc1O2", "Cat": "false (0)"}
{"Compound": "CC(NC(C)(C)C)C(=O)c1cccc(Cl)c1 (stereo not given)", "Cat": "false (0)"}
{"Compound": "C=C(C)CCl", "Cat": "false (0)"}

Exercise: Outcome? `CCCCN(CC)C(=O)SCCC`
Solution: false (0)

Exercise: Identify the outcome logged in this assay for the compound shown: `CC(C)(C)OOC(=O)c1ccccc1`
Solution: false (0)

Exercise: Recorded test outcome, item `NCCc1ccc(O)cc1`
Solution: false (0)

Exercise: I would be grateful if you could indicate the recorded call for `CCOP(=S)(OCC)SCCSCC` .
Solution: false (0)

Exercise: Any idea what this test logged for CCCC1COC(Cn2cncn2)(c2ccc(Cl)cc2Cl)O1 (stereo not given) ?
Solution: true (1)

Exercise: Outcome? `Clc1ccc(Cl)cc1`
Solution: false (0)

Exercise: Outcome? `O=c1[nH]c2ccccc2c(=O)o1`
Solution: false (0)

Exercise: Which outcome was assigned to `COC(=O)c1ccccc1N` in this test?
Solution: false (0)

Exercise: Please state the recorded outcome for this compound: `c1ccc(OP(Oc2ccccc2)Oc2ccccc2)cc1`
Solution: false (0)

Exercise: Any idea what this test logged for `ClCCBr` ?
Solution: false (0)

Exercise: Which outcome was entered for the compound `CN1C(=O)CN=C(c2ccccc2)c2cc(Cl)ccc21` in this test?
Solution: false (0)

----------
System: Aryl hydrocarbon receptor (Homo sapiens) (UniProt P35869)
Sequence (P35869 whole entry, looked up): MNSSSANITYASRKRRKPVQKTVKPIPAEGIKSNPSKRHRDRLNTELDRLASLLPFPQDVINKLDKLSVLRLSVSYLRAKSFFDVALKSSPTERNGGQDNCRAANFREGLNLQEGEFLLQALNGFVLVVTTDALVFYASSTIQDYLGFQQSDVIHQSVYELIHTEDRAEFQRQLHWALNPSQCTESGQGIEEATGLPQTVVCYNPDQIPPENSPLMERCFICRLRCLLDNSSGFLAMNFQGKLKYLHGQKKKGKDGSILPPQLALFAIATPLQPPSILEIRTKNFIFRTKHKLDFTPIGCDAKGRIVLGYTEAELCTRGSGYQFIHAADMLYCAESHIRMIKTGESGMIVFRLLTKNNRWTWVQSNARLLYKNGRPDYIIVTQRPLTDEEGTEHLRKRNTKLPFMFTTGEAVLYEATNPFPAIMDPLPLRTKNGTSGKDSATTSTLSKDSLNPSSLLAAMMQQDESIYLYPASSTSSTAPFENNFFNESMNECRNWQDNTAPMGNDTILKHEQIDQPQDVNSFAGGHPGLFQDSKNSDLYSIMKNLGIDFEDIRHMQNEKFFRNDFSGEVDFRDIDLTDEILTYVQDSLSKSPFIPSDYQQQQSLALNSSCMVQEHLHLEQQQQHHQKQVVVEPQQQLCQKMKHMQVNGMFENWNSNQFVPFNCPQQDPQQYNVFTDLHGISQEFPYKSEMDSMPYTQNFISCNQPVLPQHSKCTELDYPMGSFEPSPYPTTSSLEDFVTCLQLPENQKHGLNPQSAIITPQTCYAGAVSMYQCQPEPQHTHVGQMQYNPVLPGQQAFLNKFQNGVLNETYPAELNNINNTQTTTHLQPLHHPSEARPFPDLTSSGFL
Experiment: qHTS assay to identify small molecule that activate the aryl hydrocarbon receptor (AhR) signaling pathway (AID 743085); note: nearly all actives have a fitted effect of over 15% in size; note: potency is the fitted concentration of half-maximal effect;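 for activation: HG2L7.5c1 human HepG2 liver cells with stably integrated DRE-driven firefly reporter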
Reported conditions: HepG2 AhR-luc (HG2L7.5c1), luciferase, 24 h; series mostly up to 70.3 µM
Source text: U.S. Tox21 Program National Center for Advancing Translational Sciences [NCATS] NIH Chemical Genomics Center [NCGC] U.S. Environmental Protection Agency [EPA] National Institutes of Environmental Health Sciences [NIEHS] National Toxicology Program [NTP] U.S. Food and Drug Administration [FDA] Tox21 Assay overview: The Aryl hydrocarbon Receptor (AhR), a member of the family of basic helix-loop-helix transcription factors, is crucial to adaptive responses to environmental changes. […]
Records with an inconclusive call do not appear. Active and inactive are the calls of the source. Calls follow the shape of the dose curve; as a rule, active = well fitted activation curve with a large enough effect in the repeat runs; inconclusive = weak or mixed curves; inactive = no such curve, though single readings can be large or run the other way.
Experimental readout: Potency

{"Chemical string": "CC(C)OC(=O)Nc1ccccc1", "Assay value": "inactive"}
{"Chemical string": "[O-][Cl+2]([O-])O", "Assay value": "inactive"}
{"Chemical string": "CCNc1nc(NC(C)(C)C)nc(SC)n1", "Assay value": "1.52 µM (active)"}
{"Chemical string": "CCCN(CCC)c1c([N+](=O)[O-])cc(C(F)(F)F)cc1[N+](=O)[O-]", "Assay value": "inactive"}

----------
System: Aromatase (Homo sapiens)
Experiment: qHTS assay to identify aromatase inhibitors (AID 743083); note: nearly all actives have a fitted effect of over 55% in size
Reported conditions: MCF-7 aro ERE, testosterone-driven ERE luciferase, 24 h; series mostly up to 70.3 µM
Inconclusive results are not listed. Active and inactive are the calls of the source. Calls come from the whole dose curve; as a rule, active = well fitted inhibition curve with a large enough effect in the repeat runs; inconclusive = weak or mixed curves; inactive = no such curve, though single readings can be large or run the other way.

{"Chemical string": "Nc1ccccc1C(=O)O", "outcome": "inactive"}
{"Chemical string": "CC1C=[C-]C=C1.[C-]#[O+].[C-]#[O+].[C-]#[O+].[Mn]", "outcome": "inactive"}
{"Chemical string": "CC(C)C#N", "outcome": "inactive"}

----------
Experiment: qHTS assay for identifying genotoxic compounds that show differential cytotoxicity against isogenic chicken DT40 cell lines with known DNA damage response pathways - wild type cell line (AID 743012); note: nearly all actives have a fitted effect of over 60% in size
Reported conditions: DT40 wild type chicken cells viability, CellTiter-Glo, 40 h; series mostly up to 68.4 µM
Inconclusive results are not listed. Active and inactive are the calls of the source. Calls come from the whole dose curve; as a rule, active = well fitted cell-killing curve with a large enough effect in the repeat runs; inconclusive = weak or mixed curves, or effect the other way; inactive = no such curve, though single readings can be large or run the other way.
Please state which outcome applies, choosing from T for active, F for inactive

Check out these entries, answers already filled in.
{"Compound": "C=CCO", "Cat": "F"}
{"Compound": "CCOC(=O)c1ccccc1C(=O)OCC", "Cat": "F"}
{"Compound": "Cc1ccc(N)cc1Cl", "Cat": "F"}

Exercise: Which result was noted for this compound in the test: `COC(=O)c1ccccc1C(=O)OC`
Solution: F

Exercise: Record lookup: outcome of this test for `CC(C)N1C(=O)c2ccccc2NS1(=O)=O` ?
Solution: F

Exercise: Record request — test call for `O=c1[nH]c2ccccc2c(=O)o1`
Solution: F

Exercise: Which outcome was assigned to `COC(=O)NS(=O)(=O)c1ccc(N)cc1` in this test?
Solution: F

Exercise: How did this test come out for `CC(C)(C)OOC(=O)c1ccccc1` ?
Solution: F

Exercise: Would you mind telling me which call this test gave CC(C)(C)C(O)(CCc1ccc(Cl)cc1)Cn1cncn1 (configuration not stated) ?
Solution: T

Exercise: Dear all, I need the recorded test outcome for `CCN(CC)c1ccccc1` , thank you.
Solution: F

Exercise: Can you look up the reported call for C1CC2OC2CC1C1CO1 (configuration not stated) for me?
Solution: F

Exercise: Tell me the recorded outcome of this test for `CCCCN(CCCC)SN(C)C(=O)Oc1cccc2c1OC(C)(C)C2` .
Solution: T

Exercise: # outcome recorded in this test, key = `Nc1ccc(Cc2ccc(N)cc2)cc1`
Solution: F

Exercise: Status in this test for `CC1C=[C-]C=C1.[C-]#[O+].[C-]#[O+].[C-]#[O+].[Mn]` ?
Solution: F

Exercise: Query: recorded result category for `CC(C)OC(=O)Nc1cccc(Cl)c1` in this test
Solution: F

Exercise: Field: outcome | Entry: `c1ccc2c(c1)oc1ccccc12`
Solution: F

Exercise: Dear all, I need the recorded test outcome for NCC(O)c1ccc(O)cc1 (configuration not stated) , thank you.
Solution: F

Exercise: Field: outcome | Entry: `C1CN2CCN1CC2`
Solution: F

Exercise: What did this assay record as the result for `O=Cc1cccc(Oc2ccccc2)c1` ?
Solution: F

Exercise: Please share the test call associated with `Cn1cc(-c2ccccc2)c(=O)c(-c2cccc(C(F)(F)F)c2)c1` .
Solution: F

Exercise: Query: recorded result category for `CCCCOC(=O)c1ccccc1C(=O)OCCCC` in this test
Solution: T

Exercise: Recorded test call requested for `ClCCBr`
Solution: F
